Assay: Drug metabolism properties (pharmacokinetics) in mice
Type: in vivo
Conditions: mouse, plasma, intravenous injection/oral gavage, read-out: Oral bioavailability F % (mice)
Please note: Criterion met applies when bioavailability is 50% or greater, and Criterion not met applies otherwise.

>>> print(df.to_string())
                                   compound        class_label
0  CCc1nonc1C(=O)N[C@H](C(=O)Nc1ccc(-c2c(C)n[nH]c2C)cc1)C1c2ccc(F)c(F)c2OCC12CC2 (stereo partly drawn)  Criterion not met
1  Cc1n[nH]c(C)c1-c1ccc(NC(=O)[C@@H](NC(=O)c2nonc2C2CC2)C2c3cc(F)c(F)cc3OCC23CC3)cc1 (stereo partly drawn)  Criterion not met

Query block: Quick check, bioavailability >= 50%? Cc1n[nH]c(C)c1-c1ccc(NC(=O)[C@@H](NC(=O)c2ccnn2C(C)C)C2c3ccc(F)cc3OCC23CC3)cn1 (stereo partly drawn)
Result block: Criterion met

Query block: And for CCc1nonc1C(=O)N[C@H](C(=O)Nc1ccc(-c2c(C)n[nH]c2C)nc1)C1c2ccc(F)cc2OCC12CC2 (stereo partly drawn) ?
Result block: Criterion met

* * *

Biological target: UniProt:Q16552
Sequence (Q16552 20-155 limits assumed): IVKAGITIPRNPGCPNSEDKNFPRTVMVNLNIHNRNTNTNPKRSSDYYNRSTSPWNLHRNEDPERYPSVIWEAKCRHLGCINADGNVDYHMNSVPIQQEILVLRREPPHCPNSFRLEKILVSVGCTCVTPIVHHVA
Assay: Inhibition of hIL-17A-induced chemokine GROα/CXCL1 production in HT-29 cell
PROPERTY: IC50 (nM)
Could you give me the number in nM? Just the number is fine.

Study these solved cases before continuing.
                                   compound  assayed_system  units  recorded_measurement
0  Cc1nonc1C(=O)N[C@H](C(=O)Nc1ccc(-c2c(C)n[nH]c2C)cc1)C1c2c(F)cccc2CC12CC2 (some centres unmarked) [Compound 14]  UniProt:Q16552     nM                   206
1  COC(=O)N[C@H](C(=O)Nc1ccc(-c2c(C)n[nH]c2C)cc1)C1c2cc(F)c(F)cc2OCC12CC2 (some centres unmarked) [Compound 107]  UniProt:Q16552     nM                   383
2  Cc1n[nH]c(C)c1-c1ncc(NC(=O)[C@@H](NC(=O)c2ccnn2C(C)C)C2c3ccc(F)c(F)c3OCC23CC3)cc1F (some centres unmarked) [Compound 51]  UniProt:Q16552     nM                   313
3  Cc1n[nH]c(C)c1-c1ccc(NC(=O)[C@@H](NC(=O)c2ccnn2C)C2c3c(F)cccc3CC23CC3)cc1 (some centres unmarked) [Compound 13]  UniProt:Q16552     nM                   391

Query block: Identify the measured IC50 of CCc1nonc1C(=O)N[C@H](C(=O)Nc1ccc(-c2c(C)n[nH]c2C)cc1)C1c2ccc(F)c(F)c2OCC12CC2 (some centres unmarked) [Compound 58] for UniProt:Q16552.
Result block: 109

* * *

Biological target: human IL-17A (hIL-17A) (Homo sapiens)
Experiment: IL-17A enzyme-linked immunosorbent assay (competitive ELISA, receptor-ligand binding)
pIC50: −log10 of the molar value.
Please note: rule met applies when pIC50 is 7 or greater, and rule not met applies otherwise.

>>> df
                                   compound   class_label
0  Cc1n[nH]c(C)c1-c1ccc(NC(=O)[C@@H](NC(=O)c2ccnn2C)C2c3ccccc3CC23CC3)cc1 (some centres unmarked)      rule met
1  Cc1n[nH]c(C)c1-c1ccc(NC(=O)[C@@H](NC(=O)c2ccnn2C)C2c3ccccc3OCC23CC3)cc1 (some centres unmarked)      rule met
2  Cc1n[nH]c(C)c1-c1ncc(NC(=O)[C@@H](NC(=O)c2nonc2C2CC2)C2c3ccc(F)c(F)c3OCC23CC3)cc1F (some centres unmarked)  rule not met
3  CCc1nonc1C(=O)N[C@H](C(=O)Nc1ccc(-c2c(C)n[nH]c2C)cc1)C1c2cc(F)ccc2OCC12CC2 (some centres unmarked)      rule met
4  Cc1n[nH]c(C)c1-c1ccc(NC(=O)[C@@H](NC(=O)c2nonc2C(C)C)C2c3ccc(F)c(F)c3OCC23CC3)cc1 (some centres unmarked)  rule not met

Query block: Quick check, pIC50 >= 7? Cc1n[nH]c(C)c1-c1ccc(NC(=O)[C@@H](NC(=O)c2ccnn2C(C)C)C2c3cc(F)cc(F)c3OCC23CC3)cc1 (some centres unmarked)
Result block: rule not met

Query block: And for CCc1nonc1C(=O)N[C@H](C(=O)Nc1ccc(-c2c(C)n[nH]c2C)cc1)C1c2cc(F)c(F)cc2OCC12CC2 (some centres unmarked) ?
Result block: rule met

Query block: And for Cc1n[nH]c(C)c1-c1ccc(NC(=O)[C@@H](NC(=O)c2nonc2C(C)C)C2c3c(F)ccc(F)c3OCC23CC3)cn1 (some centres unmarked) ?
Result block: rule not met

Query block: And for Cc1n[nH]c(C)c1-c1ccc(NC(=O)[C@@H](NC(=O)c2ccnn2C(C)C)C2c3c(F)ccc(F)c3OCC23CC3)cc1 (some centres unmarked) ?
Result block: rule not met

* * *

Target: UniProt Q16552
Sequence (Q16552 24-155): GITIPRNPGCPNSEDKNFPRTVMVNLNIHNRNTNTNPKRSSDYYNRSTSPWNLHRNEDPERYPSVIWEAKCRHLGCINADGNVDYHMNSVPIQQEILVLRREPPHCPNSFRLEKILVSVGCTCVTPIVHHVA
Assay: IL-17A enzyme-linked immunosorbent assay (competitive ELISA, receptor-ligand binding)
Known pIC50 of a selection of molecules
When answering, recall that pIC50 equals minus log10 of the concentration in mol/L, and write that number alone.

Study these solved cases before continuing.
In [3]: df
Out[3]:
                                   molecule  property  recorded_measurement
0  CCc1nonc1C(=O)N[C@H](C(=O)Nc1ccc(-c2c(C)n[nH]c2C)cc1)C1c2c(F)cc(F)cc2OCC12CC2 (stereo partly shown)     pIC50                  6.26
1  COCCc1nocc1C(=O)N[C@H](C(=O)Nc1cnc(-c2c(C)n[nH]c2C)c(F)c1)C1c2cc(F)c(F)cc2OCC12CC2 (stereo partly shown)     pIC50                  7.00
2  Cc1n[nH]c(C)c1-c1ncc(NC(=O)[C@@H](NC(=O)c2ccnn2C(C)C)C2c3cc(F)c(F)cc3OCC23CC3)cc1F (stereo partly shown)     pIC50                  7.06
3  Cc1n[nH]c(C)c1-c1ncc(NC(=O)[C@@H](NC(=O)c2nonc2C(C)C)C2c3c(F)ccc(F)c3OCC23CC3)cc1F (stereo partly shown)     pIC50                  5.01
4  Cc1n[nH]c(C)c1-c1ccc(NC(=O)[C@@H](NC(=O)c2nonc2C(C)C)C2c3ccc(F)cc3OCC23CC3)cc1F (stereo partly shown)     pIC50                  6.73

Could you now consider this next molecule?
Query block: Query: pIC50; subject: Cc1n[nH]c(C)c1-c1ccc(NC(=O)[C@@H](NC(=O)c2ccnn2C(C)C)C2c3ccc(F)c(F)c3OCC23CC3)cc1 (stereo partly shown)
Result block: 6.86

* * *

Biological target: human IL-17A (hIL-17A) (Homo sapiens)
Assay: IL-17A enzyme-linked immunosorbent assay (competitive ELISA, receptor-ligand binding)
pIC50: −log10 of the molar value.
Please note: Satisfied applies when pIC50 is 7 or greater, and Not satisfied applies otherwise.

The following compounds have reported results that may help.
>>> print(df.to_string())
                                   compound                         assayed_system    class_label
0  Cc1n[nH]c(C)c1-c1ccc(NC(=O)[C@@H](NC(=O)c2c(C(C)C)no[n+]2[O-])C2c3c(F)cc(F)cc3OCC23CC3)cc1 (stereo partly shown)  human IL-17A (hIL-17A) (Homo sapiens)  Not satisfied
1  Cc1n[nH]c(C)c1-c1ncc(NC(=O)[C@@H](NC(=O)c2nonc2C(C)C)C2c3cc(F)cc(F)c3OCC23CC3)cc1F (stereo partly shown)  human IL-17A (hIL-17A) (Homo sapiens)  Not satisfied
2  Cc1n[nH]c(C)c1-c1ncc(NC(=O)[C@@H](NC(=O)c2ccnn2C(C)C)C2c3cc(F)cc(F)c3OCC23CC3)cc1F (stereo partly shown)  human IL-17A (hIL-17A) (Homo sapiens)  Not satisfied
3  Cc1n[nH]c(C)c1-c1ccc(NC(=O)[C@@H](NC(=O)c2ccnn2C)C2c3cc(F)ccc3CC23CC3)cc1 (stereo partly shown)  human IL-17A (hIL-17A) (Homo sapiens)      Satisfied
4  Cc1n[nH]c(C)c1-c1ncc(NC(=O)[C@@H](NC(=O)c2ccnn2C(C)C)C2c3c(F)ccc(F)c3OCC23CC3)cc1F (stereo partly shown)  human IL-17A (hIL-17A) (Homo sapiens)  Not satisfied
5  CCc1nonc1C(=O)N[C@H](C(=O)Nc1ccc(-c2c(C)n[nH]c2C)cc1)C1c2ccc(F)c(F)c2OCC12CC2 (stereo partly shown)  human IL-17A (hIL-17A) (Homo sapiens)      Satisfied

Query block: Quick check, pIC50 >= 7? Cc1n[nH]c(C)c1-c1ccc(NC(=O)[C@@H](NC(=O)c2nonc2C2CC2)C2c3ccc(F)cc3OCC23CC3)cc1 (stereo partly shown)
Result block: Not satisfied
